- TARGET_DESC: BACE1 (Homo sapiens (Human), UniProt P56817)
- Sequence (P56817 46-501): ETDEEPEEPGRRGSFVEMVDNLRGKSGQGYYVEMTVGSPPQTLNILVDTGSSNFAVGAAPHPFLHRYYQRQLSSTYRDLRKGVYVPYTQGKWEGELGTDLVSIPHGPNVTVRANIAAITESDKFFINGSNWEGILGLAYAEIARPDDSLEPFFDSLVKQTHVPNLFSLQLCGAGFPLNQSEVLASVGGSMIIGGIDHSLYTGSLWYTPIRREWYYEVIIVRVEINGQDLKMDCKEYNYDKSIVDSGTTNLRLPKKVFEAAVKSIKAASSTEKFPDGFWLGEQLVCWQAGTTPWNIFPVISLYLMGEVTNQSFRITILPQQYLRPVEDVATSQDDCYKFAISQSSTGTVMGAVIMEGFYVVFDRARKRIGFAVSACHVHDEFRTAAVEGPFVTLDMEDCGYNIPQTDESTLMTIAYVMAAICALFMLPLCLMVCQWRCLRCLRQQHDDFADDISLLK
- ASSAY_COMMENT: In vitro enzymatic BACE1 FRET assay
- Format: biochemical
- PROTOCOL_CONDITIONS: read-out: BACE1 Enzyme IC50
pIC50: −log10 of the molar value.
READOUT_TYPE: pIC50

Answered examples (2):
C[C@]1(c2cc(/C=C(\F)c3cnc(OCC(F)F)cn3)ccc2F)N=C(N)[C@@]2(CF)CC[C@@H]1S2(=O)=O [Example 134]: 7.00
CN1C(N)=N[C@](C)(c2cc(/C=C(\F)c3cc4c(cn3)OCCC4)ccc2F)CS1(=O)=O [Example 239]: 6.28

A: CC1(C)C(N)=N[C@](C)(c2cc(/C=C(\F)c3ccc(C#N)cn3)cc(F)c2F)CS1(=O)=O [Example 192]
B: CC#C[C@H](CC)Oc1cnc(/C(F)=C/c2ccc(F)c([C@]3(C)CS(=O)(=O)C(C)(C)C(N)=N3)c2)cn1 (single isomer, unassigned) [Example 199]
C: CC1(C)C(N)=N[C@](C)(c2cc(/C=C(\F)c3cnc(Oc4ccccc4)cn3)ccc2F)CS1(=O)=O [Example 211]
D: CCOc1cnc(/C(F)=C/c2ccc(F)c([C@@]3(C)N=C(N)[C@@]4(CF)CC[C@@H]3S4(=O)=O)c2)cn1 [Example 122]
E: C[C@H](O)COc1cnc(/C(F)=C/c2ccc(F)c([C@]3(C)CS(=O)(=O)C(C)(C)C(N)=N3)c2)cn1 [Example 219]
Ascending by pIC50, please: list the compounds accordingly. Please respond with the labels ordered as the question requires.
C, E, D, A, B
(C: 6.46, E: 6.87, D: 7.27, A: 7.92, B: 8.40)

----------
- TARGET_DESC: human recombinant BACE2 (Homo sapiens (Human))
- Sequence (Q9Y5Z0 63-518): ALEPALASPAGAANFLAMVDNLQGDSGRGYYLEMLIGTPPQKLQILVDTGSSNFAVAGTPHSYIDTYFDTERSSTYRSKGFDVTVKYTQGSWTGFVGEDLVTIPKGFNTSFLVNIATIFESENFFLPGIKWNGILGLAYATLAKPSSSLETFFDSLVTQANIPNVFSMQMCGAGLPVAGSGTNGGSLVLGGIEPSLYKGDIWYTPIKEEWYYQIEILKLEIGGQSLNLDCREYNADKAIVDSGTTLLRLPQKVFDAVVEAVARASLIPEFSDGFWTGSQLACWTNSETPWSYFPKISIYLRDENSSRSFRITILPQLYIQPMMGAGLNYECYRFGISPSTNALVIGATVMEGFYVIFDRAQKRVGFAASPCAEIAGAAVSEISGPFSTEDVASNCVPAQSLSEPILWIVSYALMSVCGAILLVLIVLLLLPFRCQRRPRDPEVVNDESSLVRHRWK
- ASSAY_COMMENT: In vitro enzymatic BACE2 FRET assay
- PROTOCOL_CONDITIONS: read-out: BACE2 Enzyme IC50
READOUT_TYPE: IC50 (nM)

Answered examples (8):
Cc1cc(COc2cnc(/C(F)=C/c3cc(F)c(F)c([C@]4(C)CS(=O)(=O)N(C)C(N)=N4)c3)cn2)no1: 210
CC1(C)C(N)=N[C@](C)(c2cc(/C=C(\F)c3ccc(C#N)cn3)cnc2F)CS1(=O)=O: 87
CN1C(N)=N[C@](C)(c2cc(/C=C(\F)c3ccc(C#N)cn3)ccc2F)CS1(=O)=O: 31
CN1C(N)=N[C@](C)(c2cc(/C=C(\F)c3ccc4c(c3)OCCO4)ccc2F)CS1(=O)=O: 157
CC1(C)C(N)=N[C@](C)(c2cc(/C=C(\F)c3cc4c(cn3)OCCO4)ccc2F)[C@@H](F)S1(=O)=O (single isomer, unassigned): 683
CN1C(N)=N[C@](C)(c2cc(/C=C(\F)c3ccc(C(F)(F)F)cn3)ccc2F)CS1(=O)=O: 31
Cc1noc(COc2cnc(/C(F)=C/c3ccc(F)c([C@]4(C)CS(=O)(=O)N(C)C(N)=N4)c3)cn2)n1: 97
COc1cnc(/C(F)=C/c2ccc(F)c([C@]3(C)CS(=O)(=O)C(C)(C)C(N)=N3)c2)cn1: 190

A: C[C@]1(c2cc(/C=C(\F)c3cnc(OCC4CCC4)cn3)ccc2F)N=C(N)[C@@]2(CF)CC[C@@H]1S2(=O)=O
B: CC#CCOc1cnc(/C(F)=C/c2ccc(F)c([C@]3(C)CS(=O)(=O)N(C)C(N)=N3)c2)cn1
C: CC1(C)C(N)=N[C@](C)(c2cc(/C=C(\F)c3cnc(OCCC(F)(F)F)cn3)ccc2F)CS1(=O)=O
D: CN1C(N)=N[C@](C)(c2cc(/C=C(\F)c3ccc(Cl)cn3)cc(F)c2F)CS1(=O)=O
E: CC(C)(C#N)COc1cnc(/C(F)=C/c2ccc(F)c([C@]3(C)CS(=O)(=O)C(C)(C)C(N)=N3)c2)cn1
Task field, ranking: reported IC50, descending order. Please respond with the labels ordered as the question requires.
E, C, A, B, D
